- SYSTEM UNDER TEST: platelet-derived growth factor β-receptor (PDGFR-β) (Homo sapiens)
- Sequence (P09619 33-1106, species assumed): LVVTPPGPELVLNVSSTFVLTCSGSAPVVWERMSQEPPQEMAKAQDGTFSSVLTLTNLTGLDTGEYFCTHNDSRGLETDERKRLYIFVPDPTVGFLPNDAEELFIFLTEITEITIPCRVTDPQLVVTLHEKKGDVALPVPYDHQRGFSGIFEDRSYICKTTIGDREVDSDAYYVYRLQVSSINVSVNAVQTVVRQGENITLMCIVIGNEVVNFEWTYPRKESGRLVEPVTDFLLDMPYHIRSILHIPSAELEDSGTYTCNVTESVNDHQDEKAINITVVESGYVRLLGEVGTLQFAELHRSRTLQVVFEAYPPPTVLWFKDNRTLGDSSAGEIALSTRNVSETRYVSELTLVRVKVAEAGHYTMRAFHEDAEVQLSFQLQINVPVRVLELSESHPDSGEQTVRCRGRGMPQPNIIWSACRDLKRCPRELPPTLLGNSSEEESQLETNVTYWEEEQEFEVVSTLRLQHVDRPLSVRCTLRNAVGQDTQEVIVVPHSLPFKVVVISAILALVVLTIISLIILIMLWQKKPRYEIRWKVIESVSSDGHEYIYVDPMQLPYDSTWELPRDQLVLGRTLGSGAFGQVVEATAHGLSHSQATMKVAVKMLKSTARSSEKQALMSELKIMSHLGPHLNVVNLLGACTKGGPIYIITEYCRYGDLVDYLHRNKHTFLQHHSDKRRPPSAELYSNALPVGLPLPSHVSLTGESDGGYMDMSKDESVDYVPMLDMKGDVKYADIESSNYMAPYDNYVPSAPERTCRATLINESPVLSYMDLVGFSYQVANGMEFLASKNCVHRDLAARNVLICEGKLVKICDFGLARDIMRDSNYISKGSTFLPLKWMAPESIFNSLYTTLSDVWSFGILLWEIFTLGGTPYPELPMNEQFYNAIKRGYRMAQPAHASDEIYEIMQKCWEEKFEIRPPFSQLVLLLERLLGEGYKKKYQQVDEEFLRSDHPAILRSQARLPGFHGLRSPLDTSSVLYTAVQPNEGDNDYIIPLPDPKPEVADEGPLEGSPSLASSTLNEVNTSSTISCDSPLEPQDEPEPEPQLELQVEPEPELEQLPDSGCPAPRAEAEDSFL
- ASSAY REMARKS: Solid-phase assay: displacement of 125I-PDGF-BB from immobilized PDGFR-β
- Format: binding
- ASSAY SETUP: competition with 125I-PDGF-BB, 3 h at room temperature, immobilized purified PDGFR-β; read-out: Assay I50
- Method: Direct immobilization of platelet-derived growth factor […] is performed by overnight incubation in immunosorbent 96-well plates (Nunc) at 4° C. using 100 ng of purified protein in 100 μl of 15 mM Na2CO3, 35 mM NaHCO3, pH 9.6. The plates are washed once with tris-buffered saline (TBS, 20 mM Tris-HCl, 150 mM NaCl, pH 7.4), and nonspecific adsorption is blocked by at least 1 h of incubation with TBS plus 1% bovine serum albumin (BSA). […]
Non-standard residues stand in square brackets, D forms with d. Residues, ends and D or L forms follow the SMILES beside them.
QUANTITY: pIC50
Note on units: pIC50 is unitless, being -log10 of a concentration expressed in mol/L.

Solved cases below.
CC(C)[C@@H]1NC(=O)[C@H](CO)NC(=O)[C@H](Cc2c[nH]c3ccccc23)NC(=O)[C@@H]2CCCN2C(=O)[C@H]2CCCN2C(=O)[C@H](Cc2c[nH]c3ccccc23)NC(=O)[C@H](CO)NC(=O)[C@H](CCCCN)NC(=O)[C@H](CCCCN)NC(=O)[C@H](CCCNC(=N)N)NC1=O [Example 17] (cyclo(PWSVRKKSW[dP])): 3.10
CC(C)[C@@H]1NC(=O)[C@H](Cc2ccc(O)cc2)NC(=O)[C@H](Cc2c[nH]c3ccccc23)NC(=O)[C@@H]2CCCN2C(=O)[C@H]2CCCN2C(=O)[C@H](Cc2c[nH]c3ccccc23)NC(=O)[C@H](Cc2ccc(O)cc2)NC(=O)[C@H](CCCCN)NC(=O)[C@H](CCCCN)NC(=O)[C@H](CCCNC(=N)N)NC1=O [Example 14] (cyclo(PWYVRKKYW[dP])): 3.77
CC(C)[C@@H]1NC(=O)[C@H](Cc2c[nH]c3ccccc23)NC(=O)[C@H](C)NC(=O)[C@@H]2CCCN2C(=O)[C@H]2CCCN2C(=O)[C@H](C)NC(=O)[C@H](Cc2c[nH]c3ccccc23)NC(=O)[C@H](CCCCN)NC(=O)[C@H](CCCCN)NC(=O)[C@H](CCCNC(=N)N)NC1=O [Example 21] (cyclo(PAWVRKKWA[dP])): 2.70
CC(C)[C@@H]1NC(=O)[C@H](Cc2ccc(O)cc2)NC(=O)[C@H](Cc2ccc(O)cc2)NC(=O)[C@@H]2CCCN2C(=O)[C@H]2CCCN2C(=O)[C@H](Cc2ccc(O)cc2)NC(=O)[C@H](Cc2ccc(O)cc2)NC(=O)[C@H](CCCCN)NC(=O)[C@H](CCCCN)NC(=O)[C@H](CCCNC(=N)N)NC1=O [Example 8] (cyclo(PYYVRKKYY[dP])): 3.10

Requested field: pIC50. Item: CC(C)[C@@H]1NC(=O)[C@H](CCCCN)NC(=O)[C@H](Cc2c[nH]c3ccccc23)NC(=O)[C@@H]2CCCN2C(=O)[C@H]2CCCN2C(=O)[C@H](Cc2c[nH]c3ccccc23)NC(=O)[C@H](CCCCN)NC(=O)[C@H](CCCCN)NC(=O)[C@H](CCCCN)NC(=O)[C@H](CCCNC(=N)N)NC1=O [Example 18] (cyclo(PWKVRKKKW[dP])) 3.30

Requested field: pIC50. Item: CC[C@H](C)[C@@H]1NC(=O)[C@H](CCC(=O)O)NC(=O)[C@@H]2CCCN2C(=O)[C@H]2CCCN2C(=O)[C@H]([C@@H](C)CC)NC(=O)[C@@H]2CCCN2C(=O)[C@H](CCCCN)NC(=O)[C@H](CCCCN)NC(=O)[C@H](CCCNC(=N)N)NC(=O)[C@H](C(C)C)NC1=O [Example 1] (cyclo(PEIVRKKPI[dP])) 2.66

* * *

- SYSTEM UNDER TEST: platelet-derived growth factor β-receptor (PDGFR-β) (Homo sapiens)
- ASSAY REMARKS: Solid-phase assay: displacement of 125I-PDGF-BB from immobilized PDGFR-β
- Assay type: binding
- ASSAY SETUP: competition with 125I-PDGF-BB, 3 h at room temperature, immobilized purified PDGFR-β; read-out: Assay I50
Non-standard residues stand in square brackets, D forms with d. Residues, ends and D or L forms follow the SMILES beside them.
QUANTITY: pIC50
Note on units: pIC50 is unitless, being -log10 of a concentration expressed in mol/L.

Solved cases below.
CC(C)[C@@H]1NC(=O)[C@H](C)NC(=O)[C@H](Cc2c[nH]c3ccccc23)NC(=O)[C@@H]2CCCN2C(=O)[C@H]2CCCN2C(=O)[C@H](Cc2c[nH]c3ccccc23)NC(=O)[C@H](C)NC(=O)[C@H](CCCCN)NC(=O)[C@H](CCCCN)NC(=O)[C@H](CCCNC(=N)N)NC1=O [Example 16] (cyclo(PWAVRKKAW[dP])): 3.10
CC[C@H](C)[C@@H]1NC(=O)[C@H](Cc2ccc(O)cc2)NC(=O)[C@H](CCCCN)NC(=O)[C@H](CCCCN)NC(=O)[C@H](CCCNC(=N)N)NC(=O)[C@H](C(C)C)NC(=O)[C@H](Cc2ccc(O)cc2)NC(=O)[C@H](CCC(=O)O)NC(=O)[C@@H]2CCCN2C(=O)[C@H]2CCCN2C1=O [Example 2] (cyclo(PEYVRKKYI[dP])): 2.70
CC[C@H](C)[C@@H]1NC(=O)[C@H](Cc2ccc(O)cc2)NC(=O)[C@@H]2CCCN2C(=O)[C@H]2CCCN2C(=O)[C@H](Cc2ccc(O)cc2)NC(=O)[C@@H]2CCCN2C(=O)[C@H](CCCCN)NC(=O)[C@H](CCCCN)NC(=O)[C@H](CCCNC(=N)N)NC(=O)[C@H](C(C)C)NC1=O [Example 7] (cyclo(PYIVRKKPY[dP])): 2.82

Find pIC50 (platelet-derived growth factor β-receptor (PDGFR-β) (Homo sapiens)) for the entry CC(C)[C@@H]1NC(=O)[C@H](CCCCN)NC(=O)[C@H](Cc2ccc(O)cc2)NC(=O)[C@@H]2CCCN2C(=O)[C@H]2CCCN2C(=O)[C@H](Cc2ccc(O)cc2)NC(=O)[C@H](CCCCN)NC(=O)[C@H](CCCCN)NC(=O)[C@H](CCCCN)NC(=O)[C@H](CCCNC(=N)N)NC1=O [Example 12] (cyclo(PYKVRKKKY[dP])) 2.82
